# assaySystem: human orexin receptor 2 (Homo sapiens (Human), UniProt O43614)
# Sequence (O43614 whole entry): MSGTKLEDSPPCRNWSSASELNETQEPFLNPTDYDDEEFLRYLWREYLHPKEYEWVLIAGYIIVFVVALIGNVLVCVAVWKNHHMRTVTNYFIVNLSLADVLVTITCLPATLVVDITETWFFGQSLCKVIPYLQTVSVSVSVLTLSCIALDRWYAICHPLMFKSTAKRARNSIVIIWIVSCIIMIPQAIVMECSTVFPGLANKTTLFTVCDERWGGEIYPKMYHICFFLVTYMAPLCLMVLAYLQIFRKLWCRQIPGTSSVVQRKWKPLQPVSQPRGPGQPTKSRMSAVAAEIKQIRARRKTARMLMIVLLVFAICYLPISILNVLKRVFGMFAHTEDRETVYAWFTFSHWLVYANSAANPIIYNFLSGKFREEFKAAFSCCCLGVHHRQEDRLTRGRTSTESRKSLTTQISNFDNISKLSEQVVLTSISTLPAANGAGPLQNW
# measurementDescription: Orexin antagonist activity, intracellular calcium FLIPR assay, RBL-2H3 cells expressing human orexin receptor 2
# conditionSummary: RBL-2H3 cells stably expressing human orexin receptor 2; orexin-A at approx. 80% maximal response; compound added 15 minutes before; read-out: Human Orexin2R IC50
pIC50: −log10 of the molar value.
quantity: pIC50

Examples with answers:
1) CN(c1cnc(C(F)(F)F)cn1)[C@H]1CCC[C@@H]1NC(=O)c1c(F)cccc1-n1nccn1
< 5.00
2) Cc1nnc(-c2ccccc2C(=O)N[C@H]2CCC[C@@H]2Nc2cnc(C(F)(F)F)cn2)o1
< 5.00
3) O=C(N[C@H]1CCC[C@@H]1Nc1cnc(C(F)(F)F)cn1)c1ccccc1C(F)F
< 5.00
4) O=C(NC1CCCC1Cc1cc(C(F)(F)F)ccn1)c1ccccc1-n1nccn1 (stereo not shown) [Example 22]
5.21
5) COc1cc(Br)cnc1N[C@H]1CCC[C@@H]1NC(=O)c1ccccc1-n1nccn1
5.11
6) CC(C)c1nc(C(F)(F)F)cnc1N[C@H]1CCC[C@@H]1NC(=O)c1ccccc1-n1nccn1
5.45
7) CC1(Nc2ncc(C(F)(F)F)cn2)CCCC1NC(=O)c1ccccc1-n1nccn1 (single isomer, unassigned) [Example 94]
< 5.00
8) Cc1ccc(-n2nccn2)c(C(=O)NC2CCCC2Cc2ccc(C(F)(F)F)cn2)c1 (stereo not shown)
< 5.00

Now for a further compound.
Looking for the measured pIC50 of O=C(NC1CC(F)(F)CC1Nc1ccc(C(F)(F)F)cn1)c1ccccc1-n1nccn1 (single isomer, unassigned) [Example 128] , can you help?
< 5.00

* * *

# assaySystem: human orexin receptor 1 (Homo sapiens (Human), UniProt O43613)
# Sequence (O43613 whole entry): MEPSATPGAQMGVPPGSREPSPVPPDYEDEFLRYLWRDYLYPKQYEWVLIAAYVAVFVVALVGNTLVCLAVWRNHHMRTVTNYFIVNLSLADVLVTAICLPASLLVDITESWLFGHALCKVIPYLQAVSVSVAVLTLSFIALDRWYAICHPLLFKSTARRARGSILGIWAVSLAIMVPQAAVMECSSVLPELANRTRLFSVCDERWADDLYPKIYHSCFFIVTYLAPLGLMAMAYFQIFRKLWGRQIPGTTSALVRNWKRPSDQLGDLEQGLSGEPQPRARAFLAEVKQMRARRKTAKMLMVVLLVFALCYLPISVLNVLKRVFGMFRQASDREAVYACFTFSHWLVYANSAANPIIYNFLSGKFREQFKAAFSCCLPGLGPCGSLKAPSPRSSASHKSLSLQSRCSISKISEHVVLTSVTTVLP
# measurementDescription: Orexin antagonist activity, intracellular calcium FLIPR assay, RBL-2H3 cells expressing human orexin receptor 1
# conditionSummary: RBL-2H3 cells stably expressing human orexin receptor 1; orexin-A at approx. 80% maximal response; compound added 15 minutes before; read-out: Human Orexin1R IC50
Binary label based on IC50 with cut-off 0.01 µM: below gives t, not below gives f.

Solved cases (2 shown):
1) O=C(N[C@H]1CCC[C@@H]1Nc1cnc(C(F)(F)F)cn1)c1cc(F)ccc1-n1ccnn1
f
2) O=C(N[C@H]1CCC[C@@H]1Nc1cnc(C(F)(F)F)cn1)c1ccccc1C(F)(F)F
f

Decide: IC50 of O=C(N[C@H]1CCC[C@@H]1Oc1cc(C(F)(F)F)ccn1)c1ccccc1-n1nccn1 strictly below 0.01 µM?
f

Decide: IC50 of O=C(N[C@H]1CCC[C@@H]1Nc1ccc(C(F)(F)F)cn1)c1cc(F)ccc1-c1ncccn1 strictly below 0.01 µM?
f

Decide: IC50 of C[C@]1(Nc2cnc(C(F)(F)F)cn2)CCC[C@@H]1NC(=O)c1cc(Cl)ccc1-n1nccn1 strictly below 0.01 µM?
t

* * *

Entries and their measured IC50 follow.
# assaySystem: human orexin receptor 1 (Homo sapiens (Human))
# measurementDescription: Orexin antagonist activity, intracellular calcium FLIPR assay, RBL-2H3 cells expressing human orexin receptor 1
# conditionSummary: RBL-2H3 cells stably expressing human orexin receptor 1; orexin-A at approx. 80% maximal response; compound added 15 minutes before; read-out: Human Orexin1R IC50
Numeric answer only, unit µM assumed.

Looking for the measured IC50 of O=C(N[C@H]1CCC[C@@H]1Nc1ccc(C(F)(F)F)cn1)c1cc(F)cc(F)c1-n1nccn1 , can you help?
0.153
